The compounds below have reported pKi for Mu-type opioid receptor (Homo sapiens, UniProt P35372).
Entry type: numeric. Quantity: pKi, the -log10 of concentration in molar units.

Consider O=C(Cc1cccc2occc12)NCC12CCCN1CCC2 . Its measured pKi is 5.47

Consider CC[C@]12CCN(CC3CC3)[C@H](C(=O)c3ccc(O)cc31)[C@@H]2C . Its measured pKi is 8.99

---

# test system: UniProt P41145
# Sequence (P41145 whole entry): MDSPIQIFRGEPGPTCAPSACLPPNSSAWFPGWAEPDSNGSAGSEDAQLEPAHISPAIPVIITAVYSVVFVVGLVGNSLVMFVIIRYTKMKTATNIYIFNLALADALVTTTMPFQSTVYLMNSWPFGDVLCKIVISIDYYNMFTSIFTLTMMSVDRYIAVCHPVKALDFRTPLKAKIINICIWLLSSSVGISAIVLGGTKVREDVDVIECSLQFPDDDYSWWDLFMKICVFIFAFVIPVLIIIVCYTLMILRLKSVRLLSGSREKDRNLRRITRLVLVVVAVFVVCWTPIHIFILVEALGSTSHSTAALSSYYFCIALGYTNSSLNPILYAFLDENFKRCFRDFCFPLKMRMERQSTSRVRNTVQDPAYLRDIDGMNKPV
Exercise: state measured pKi for each of the compounds provided.
Entry type: numeric. Quantity: pKi, the -log10 of concentration in molar units.

Consider CN(C(=O)Cc1c(OCCN2CCCC2)ccc2ccccc12)C1CCCCC1 . Its measured pKi is 6.80

Consider O=C(Cc1cccc2occc12)NCC12CCCN1CCC2 . Its measured pKi is 6.03
